# TEST SYSTEM: 4'-phosphopantetheinyl transferase ffp (Bacillus subtilis)
# EXPERIMENT SUMMARY: qHTS Assay for Inhibitors of Bacillus subtilis Sfp phosphopantetheinyl transferase (PPTase);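 further: the enzyme is Sfp with the accession as filed and its product quenches rhodamine fluorescence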;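 on largest response in the series, negative = inhibition: 0% = enzyme reaction without inhibitor and -100% = no enzyme wells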
# CONDITION PARAMETERS: Biochemical Sfp PPTase activity
# Text: Assay Submitter: Michael Burkart, University of California, San Diego Screening Center PI: Austin, C.P. Screening Center: NIH Chemical Genomics Center [NCGC] […] In search of small molecule Sfp-PPTase inhibitors, a fluorescence quenching assay was developed for detection of Bacillus subtilis Sfp-PPTase enzymatic activity in a miniaturized high-throughput format. […]
About 11,000 (3.5%) of roughly 310,000 compounds were called active. Another 4% or so got no clear call; they are omitted. This is one part of a sample in which actives are shown more often than they occur.
Readings of largest response in the series, negative = inhibition for the listed compounds
QUANTITY: largest response in the series, negative = inhibition (%)

>>> print(df.to_string())
                                    compound  experimental_result
 0  O=[N+]([O-])c1ccc(C2C3C(c4ccccc4)=NC4(CCCCC4)N32)cc1 (centres undefined)                -4.07
 1  c1ccc2sc(C3CCCNC3)nc2c1 (centres undefined)                 9.62
 2  Cc1cccc(-n2c(O)c(C=NC34CN5CN(CN(C5)C3)C4)c(=O)[nH]c2=O)c1                 9.77
 3  O=C(Nc1cccc(F)c1)N1CC[C@@]2(CCCN(C(=O)Oc3ccccc3)C2)C1                -5.07
 4  COC(=O)N1C(c2ccccc2)C1c1ccccc1 (centres undefined)                 17.3
 5                CCCCCCCCc1[se]c2ccccc2c1Br                 14.5
 6               c1csc(CN2CCCC3(CCNCC3)C2)n1                 3.74
 7  CC(C)(c1ccc(OC[C@@H]2CO2)cc1)c1ccc(OC[C@H]2CO2)cc1                -26.3
 8  O=c1c2ccccc2nc(/C=C/c2ccc(F)cc2)n1-c1ccccc1O                   -2
 9  COc1ccccc1N1CCN(C(CNC(=O)Oc2ccccc2)c2cccnc2)CC1 (centres undefined)                  2.8
10  COC1=C[C@]23CCCN2CCc2cc4c(cc2[C@@H]3[C@@H]1O)OCO4                 1.35
11      CN(C)C(=O)Oc1cc(=O)n2c3c(cccc13)CCC2                 10.3
12     COc1ccc(CNCCc2ccc3c(c2)OCO3)c(OC)c1OC                -17.5
13  CCCN(C/C=C/I)C1CCc2ccc(O)cc2C1 (centres undefined)                -26.2
14                                C=CCSSCC=C                -26.6
15  CN(C)C(=O)Oc1ccc2c(c1)O/C(=C\c1ccccc1)C2=O                 2.07
16  O=c1[nH]c(=O)n(-c2ccccc2)c(O)c1C=NC12CN3CN(CN(C3)C1)C2                  -28
17   CN1C2CC3CC1C(O3)C2O (centres undefined)               -0.102
18     COC(=O)c1ccc2[se]c(CC3CCCCC3)c(I)c2c1                -1.34
19  Cc1ccc(-n2c(O)c(C=NCC3CCCO3)c(=O)[nH]c2=O)c(C)c1 (centres undefined)                -4.95
20  Cc1ccc(S(=O)(=O)N(C)c2ccc(C(=O)NCC3(N(C)C)CCCCC3)cc2)cc1                 13.3
21            C=CCN(CC=C)C(=O)Nc1ccc(OCC)cc1                  0.3
22   CCCCCCN=C(CC)c1c(O)n(CCCC)c(=O)[nH]c1=O                 -9.2
23    Cc1ccc(N(C)C(=O)Oc2cccc3ccc(C)nc23)cc1                 4.73

* * *

# TEST SYSTEM: 4'-phosphopantetheinyl transferase ffp (Bacillus subtilis) (UniProt Q9F4F7)
# EXPERIMENT SUMMARY: qHTS Assay for Inhibitors of Bacillus subtilis Sfp phosphopantetheinyl transferase (PPTase);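 further: the enzyme is Sfp with the accession as filed and its product quenches rhodamine fluorescence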;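 on largest response in the series, negative = inhibition: 0% = enzyme reaction without inhibitor and -100% = no enzyme wells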
# CONDITION PARAMETERS: Biochemical Sfp PPTase activity
The campaign covered roughly 310,000 compounds. About 11,000 (3.5%) were called active. Roughly 4% stayed inconclusive and do not appear here. Many of the other results were omitted from the sample, so actives are more common in it than they were.
Catalogue of compounds with associated largest response in the series, negative = inhibition
QUANTITY: largest response in the series, negative = inhibition (%)

In [3]: df
Out[3]:
                                    compound  experimental_result
 0  COc1cc2c(cc1OC)[C@@H]1C(=O)c3ccc(O)c(CC=C(C)C)c3OC1CO2 (stereo partly drawn)                0.512
 1                     NC[C@H](O)c1ccc(O)cc1                 5.47
 2                 c1csc(CN2CC3(CCNCC3)C2)n1                 12.2
 3           c1ccc(CN2CC[C@@]3(CCCNC3)C2)cc1                 1.98
 4                 CC(C)(O)c1[se]c2ccccc2c1I                -14.3
 5  CN(C)C1C(=O)C(C(N)=O)=C(O)[C@@]2(O)C(=O)C3=C(O)c4c(O)cccc4[C@@](C)(O)C3C[C@@H]12 (stereo partly drawn)                -32.6
 6            Cc1cccc([C@H](C)c2cnc[nH]2)c1C                 9.27
 7  CN(C)P(=S)(Nc1ccccc1)C(Cl)(Cl)Cl (stereo not drawn)                 10.7
 8  COc1ccc(C2Oc3c(I)c(OC)cc(OC)c3CC2O)cc1OC (stereo not drawn)                -16.3
 9  CCOP(=O)(OCC)C(O)c1ccc(OC)cc1OC (stereo not drawn)                 9.04
10  CN1CCN(C(=S)SCC(=O)Nc2ccc(Cl)cc2C(=O)c2ccccc2)CC1                -8.26
11  CC[C@@H]1CN2CC[C@@H]1C[C@H]2[C@H](O)c1ccnc2ccc(OC)cc12                 6.78
12                   CCNC[C@H](O)c1cccc(O)c1                 18.1
13  CC(=O)c1c(O)c(C)c(O)c(Cc2c(O)c3c(c(C(=O)/C=C\c4ccccc4)c2O)OC(C)(C)C=C3)c1O                -29.6
14  COc1ccc(CCn2c(O)c(C=NCCCn3ccnc3)c(=O)[nH]c2=O)cc1OC                 15.8
15  CN1CCN(C(=O)O[C@@H]2c3nccnc3C(=O)N2c2ccc(Cl)cn2)CC1                -8.07
16  CN(C)C(=O)Oc1cc(OC(=O)N(C)C)cc(C(O)CNC(C)(C)C)c1 (stereo not drawn)                  2.1
17  C=CCN1C(=O)C2(C(C(=O)OCC)=C(N)Oc3c2c(=O)oc2ccccc32)c2ccccc21 (stereo not drawn)                -13.3
18  CN(C)CC1CCCCC1OC(=O)c1ccc(Cl)c(Cl)c1 (stereo not drawn)                -11.6
19  CC(=C1C(=O)c2ccccc2C1=O)N1CCN(CCN=Cc2c(O)n(C)c(=O)n(C)c2=O)CC1                 10.2
20  O=C(NC(c1ccc(Cl)cc1)P(=O)(Oc1ccccc1)Oc1ccccc1)OCc1ccccc1 (stereo not drawn)                 19.5
21               Nc1ccc(-c2ccc(N)c(N)c2)cc1N                -2.55
22                       CCCCCCCCCCCCN=C(N)N                  -27

* * *

# TEST SYSTEM: 4'-phosphopantetheinyl transferase ffp (Bacillus subtilis) (UniProt Q9F4F7)
# EXPERIMENT SUMMARY: qHTS Assay for Inhibitors of Bacillus subtilis Sfp phosphopantetheinyl transferase (PPTase); further: potency means the concentration at half of the fitted maximal effect;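 further: the enzyme is Sfp with the accession as filed and its product quenches rhodamine fluorescence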
# CONDITION PARAMETERS: Biochemical Sfp PPTase activity
The campaign covered roughly 310,000 compounds. About 11,000 (3.5%) were called active. Roughly 4% stayed inconclusive and do not appear here. The entries come from a sample that favours actives as a whole.
QUANTITY: Potency

                                    molecule  quantity  experimental_result
 0                              Cc1ncsc1CCCl   Potency     79.4 µM (active)
 1     Cc1nc2ccccn2c1P(=S)(N1CCCCC1)N1CCCCC1   Potency     56.2 µM (active)
 2                  CN1CCC(N(C)Cc2cccnc2)CC1   Potency     89.1 µM (active)
 3  C[C@@H]1C[C@@H]2O[C@H]2/C=C\C=C\C(=O)Cc2c(Cl)c(O)cc(O)c2C(=O)O1   Potency     15.8 µM (active)
 4  COc1ccc(N2C(=O)/C(=C/c3ccco3)C(=O)NC2=S)cc1   Potency     11.2 µM (active)
 5  O=C1N=c2ccccc2=C/C1=C\c1c(O)[nH]c(=S)[nH]c1=O   Potency     25.1 µM (active)
 6  Fc1ccc(C(OCCN2CCN(C/C=C\c3ccccc3)CC2)c2ccc(F)cc2)cc1   Potency     89.1 µM (active)
 7  O=C(O)C1CSC(c2cccnc2)N1 (centres undefined)   Potency     56.2 µM (active)
 8  Cc1noc(C)c1CSc1nc2cc(S(=O)(=O)N3CCOCC3)ccc2o1   Potency       20 µM (active)
 9  COc1ccc(CN2C(=O)NC(=O)/C(=C\c3ccc(OC)c(OC)c3OC)C2=O)cc1   Potency     56.2 µM (active)
10  O=c1c2ccccc2nc(/C=C/c2ccco2)n1-c1ccccc1O   Potency       10 µM (active)
11  CC(=O)[O][Sn]([c]1ccccc1)([c]1ccccc1)[c]1ccccc1   Potency     1.41 µM (active)
12  COC(=O)N(c1ccc(OC)cc1)P1(=S)OCCC(C)O1 (centres undefined)   Potency     12.6 µM (active)
13  O=C1NC(=O)N(Cc2ccco2)C(=O)/C1=C\c1ccc(-c2ccc(F)cc2)o1   Potency     31.6 µM (active)
14  C=CCN1C(=O)NC(=O)/C(=C/c2ccc(OCC(=O)Nc3ccc(C)cc3)cc2)C1=O   Potency     35.5 µM (active)
15  Cc1ccc2c(c1)=C/C(=C\c1c(O)[nH]c(=O)[nH]c1=O)C(=O)N=2   Potency     28.2 µM (active)
16  Cc1cccc(N2C(=O)NC(=O)/C(=C\c3cnn(-c4ccccc4)c3)C2=O)c1   Potency     39.8 µM (active)
17  COc1cccc(N2C(=O)NC(=O)/C(=C\c3ccc([N+](=O)[O-])s3)C2=O)c1   Potency     31.6 µM (active)
18  CC(C(=O)Nc1ccc(Cl)cc1Cl)N1CC=C(c2ccccc2)CC1 (centres undefined)   Potency     56.2 µM (active)
19  CN(C)CC1Oc2ccccc2OC1(O)c1ccccc1 (centres undefined)   Potency     39.8 µM (active)
20  COc1cc(Cn2c(N)c(C(=O)NCc3ccco3)c3nc4ccccc4nc32)cc(OC)c1OC   Potency     56.2 µM (active)
21  Cc1ccnc(-n2c(C)cc(/C=C3\C(=O)NC(=S)N(C)C3=O)c2C)c1   Potency     25.1 µM (active)
22  O=C1NC(=O)N(c2ccccc2)C(=O)/C1=C/c1ccc([N+](=O)[O-])s1   Potency     35.5 µM (active)
23  COC([CH2][Hg])CNC(=O)c1ccccc1OCC(=O)O (centres undefined)   Potency    0.398 µM (active)

meta.source: PubChem BioAssay AID1490
